This collection of values is drawn from ChEMBL document CHEMBL1201862.

# Tested on: DU-145
# Assay details: NCI tumour cell line growth inhibition, 48 h
The source made the active and inactive calls. Cut-off read from the data, not from the text of the source: active = GI50 up to about 1.1 µM and inactive = higher.
Each entry below carries its recorded GI50.

Examples from the recorded data:
> print(dat)
                                   molecule  measurement.kind       recorded.value
1     Nc1nc(S)c2c(N)n[nH]c2c1C(=O)Nc1ccccc1              GI50  > 100 µM (inactive)
2  Cc1cc(NCCCCCCCNc2cc(C)nc3cc([N+](=O)[O-])ccc23)c2ccc([N+](=O)[O-])cc2n1              GI50   3.08 µM (inactive)
3  COC(C)(C)C1=CCC(C)CC1 (configuration not stated)              GI50  > 100 µM (inactive)
4     Cc1ccc(NNc2cc(=O)[nH]c(=O)[nH]2)cc1Cl              GI50     37 µM (inactive)
5  Cc1ccc(S(=O)(=O)NC(=O)C2C(=O)CC3(CCCCC3)CC2=O)cc1              GI50   37.5 µM (inactive)

response.value for O=C(O)c1nc2ccc(C(F)(F)F)cc2nc1NCc1ccc(F)cc1 (field: GI50) = > 100 µM (inactive)

response.value for CCOC(=O)C1CCC(=O)N1C(=O)c1cccc(Cl)c1 (configuration not stated) (field: GI50) = > 100 µM (inactive)

response.value for NCCCNc1ccc2c(c1)[n+]([O-])c1ccccc1[n+]2[O-] (field: GI50) = 27 µM (inactive)

response.value for Cc1nn(C(=O)c2ccccc2O)c2c1C(c1ccc([N+](=O)[O-])cc1)SC(=N)N2 (configuration not stated) (field: GI50) = 3.64 µM (inactive)

response.value for C=C1C(=O)C=C[C@]2(C)CC[C@H]3C(=C)C(=O)O[C@@H]3[C@@H]12 (field: GI50) = 2.09 µM (inactive)

response.value for CC1=CC(=O)/C(=C/NC(=S)Nc2ccccc2)C(=O)O1 (field: GI50) = > 100 µM (inactive)

response.value for CCCC(=O)Nc1cc(/C=C/C(=O)N2CC(CCl)c3ccc([N+](=O)[O-])cc32)n(C)c1 (configuration not stated) (field: GI50) = > 100 µM (inactive)

###

# Tested on: SK-OV-3
# Assay details: NCI tumour cell line growth inhibition, 48 h
Active and inactive are the calls of the source. Cut-off read from the data, not from the text of the source: active = GI50 up to about 1.1 µM and inactive = higher.
Measurement kind: GI50

response.value for CC1NCCC(CC(=O)O)C1CC(=O)O (centres undefined) (field: GI50) = > 100 µM (inactive)

response.value for O=C1/C(=C/c2cccc(O)c2)COc2ccccc21 (field: GI50) = 21.3 µM (inactive)

response.value for [N-]=[N+]=NC1=CC(=O)c2cccc3cccc1c23 (field: GI50) = 15.3 µM (inactive)

response.value for Cc1ccc(N)c(S)c1 (field: GI50) = 27.9 µM (inactive)

response.value for COc1ccc2c(c1)N=C1CSC(c3cc([N+](=O)[O-])ccc3Cl)N1C2 (centres undefined) (field: GI50) = 25.2 µM (inactive)

response.value for O=S1(=O)CCN(Cc2ccccn2)CC1 (field: GI50) = > 100 µM (inactive)

response.value for CON(C)C(=O)C(C)NC(=O)OCc1ccccc1 (centres undefined) (field: GI50) = > 100 µM (inactive)

response.value for COc1cc(C(C#N)NNC(=O)Cc2ccccc2)cc(OC)c1OC (centres undefined) (field: GI50) = > 100 µM (inactive)

###

# Test system: LOX IMVI
# Assay details: NCI tumour cell line growth inhibition, 48 h
Active and inactive are the calls of the source. Rule as the data show it: active = GI50 up to about 1.1 µM and inactive = higher.
Result category, one only: Y for active, N for inactive

Examples from the recorded data:
Compound	Group
O=c1[nH]nc(Cc2ccc(Cl)cc2)n1/N=C\c1ccc(/C=N/n2c(Cc3ccc(Cl)cc3)n[nH]c2=O)cc1	N
COC(=O)C1=CCON(c2ccccc2)C1c1ccccc1 (stereo not given)	N
O=[N+]([O-])c1ccc(-n2nc3ccc4nonc4c3n2)cc1	N
NCCCNc1ccc2c(c1)[n+]([O-])c1ccccc1[n+]2[O-]	N
[N-]=[N+]=C(C(=O)C(=[N+]=[N-])C(=O)c1ccccc1)C(=O)c1ccccc1	N

Prompt line: For COC(=O)CC(NC(=O)OCc1ccccc1)C(C(=O)OCc1ccccc1)C(C)(OC)OC (stereo not given) , which call appears in the assay record?
Response line: N

Prompt line: For COc1ccc2c(c1)N=C1CSC(c3cc([N+](=O)[O-])ccc3Cl)N1C2 (stereo not given) , which call appears in the assay record?
Response line: N

Prompt line: For C=C(C1=CC(=O)C(C)(C)O1)[C@@H]1CC=C([C@@H]2CC[C@H]3[C@@]2(C)CC[C@H]2C(C)(C)C(=O)[C@H](OC(=O)CC(C)(O)CC(=O)O)C[C@]32C)[C@H](O)O1 (stereo not given in full) , which call appears in the assay record?
Response line: N

Prompt line: For O=C(CN1CCCC1=O)CS(=O)(=O)c1ccccc1 , which call appears in the assay record?
Response line: N

Prompt line: For O=C1/C(=C/c2ccccc2)CCC/C1=C\c1ccc(O)c(CN2CCCCC2)c1 , which call appears in the assay record?
Response line: N

Prompt line: For COC(=O)c1ccccc1C1CN=NC12Cc1ccc3ccccc3c1C2=O (stereo not given) , which call appears in the assay record?
Response line: N

Prompt line: For O=[N+]([O-])c1ccc(C2=Nn3c(nnc3-c3ccc(Cl)cc3)SC2)o1 , which call appears in the assay record?
Response line: N

Prompt line: For C[N+]12C=CC=C1C(N1CCCC1)c1scc(-c3ccc(Br)cc3)c12 (stereo not given) , which call appears in the assay record?
Response line: N

###

Each entry below carries its recorded GI50.
# Tested on: SK-MEL-2
# Assay details: NCI tumour cell line growth inhibition, 48 h
The source made the active and inactive calls. Cut-off read from the data, not from the text of the source: active = GI50 up to about 1.1 µM and inactive = higher.

Compound	Recorded value
CC1(C)OC(=S)N(c2ccccc2)C12C=Cc1ccccc1O2 (stereo not drawn)	> 100 µM (inactive)

response.value for COP(=O)(OC)C(N)CCSC (stereo not drawn) (field: GI50) = > 100 µM (inactive)

response.value for COc1ccc(/C(=N\NC(=O)C(N)=O)C(c2ccc(OC)cc2)C2(O)C(=O)Nc3c(Cl)cccc32)cc1 (stereo not drawn) (field: GI50) = > 100 µM (inactive)

response.value for CC1=CC[C@](C)(O)[C@@]2(C)CC[C@H]3C(=C(C)C)C(=O)C[C@]3(C)C[C@H]12 (field: GI50) = > 50 µM (inactive)

response.value for CC1(C)OC1COc1c2occc2cc2ccc(=O)oc12 (stereo not drawn) (field: GI50) = > 100 µM (inactive)

response.value for C=CCN1C(N)=C(C(N)=O)S/C1=C1/SC(=S)N(c2ccc(C)cc2)C1=O (field: GI50) = > 100 µM (inactive)

###

# System: MCF7
# Assay details: NCI tumour cell line growth inhibition, 48 h
The source made the active and inactive calls. Cut-off read from the data, not from the text of the source: active = GI50 up to about 1.1 µM and inactive = higher.
Result category, one only: label 1 for active, label 0 for inactive

> print(dat)
                                   compound    group
1  O=C(CC(=O)N1N=C(N2CCCCC2)CC1c1ccccc1)Nc1ccccc1 (stereo not given)  label 0
2           O=Cc1[nH]c(=O)[nH]c(=O)c1C(=O)O  label 0
3  CC1CC/C(=C\c2ccc(Cl)cc2)c2nc(N)c(C#N)c(-c3ccc(Cl)cc3)c21 (stereo not given)  label 0
4  COc1ccc(C2c3cc4c(cc3OC(N3CCCCC3)C2C)OCO4)cc1 (stereo not given)  label 0
5     COc1cc(CCNC2=CC(=O)c3cccnc3C2=O)ccc1O  label 1
6  C#CC(O)/C=C/C(O)CCCC(O)CC#CC(O)C#CC(O)CCCC(O)/C=C/CCCC(=O)CCCCCCCCCCCCCCCC(O)C(O)C#CC(=O)O (stereo not given)  label 0

Prompt line: For C=C(C(=O)OC)[C@H]1CC/C(C)=C/CC[C@@](C)(O)C=CC[C@@]2(C)O[C@@H]2C1 , which call appears in the assay record?
Response line: label 0

###

# Test system: M19-MEL
# Assay details: NCI tumour cell line growth inhibition, 48 h
Active and inactive are the calls of the source. No stated cut-off is given here; in the data, active = GI50 up to about 1.1 µM and inactive = higher.
Each entry below carries its recorded GI50.

> print(dat)
                                   compound       recorded.value
1  COc1cc2c(cc1OC)C(Cl)C(c1ccc(F)cc1)=C2Cl (configuration not stated)   16.8 µM (inactive)
2  CC(C)OP(=O)(OC(C)C)/C(=N/Nc1ccc([N+](=O)[O-])cc1)NCCO  > 100 µM (inactive)
3  COC(=O)C1CC(C(=O)OC)c2nc3cc(C)c(C)cc3nc21 (configuration not stated)  > 100 µM (inactive)
4        O=CC[C@H]1C(=O)C[C@@H]2CCC[C@@H]21   56.2 µM (inactive)
5  O=C1c2c(nc3ccccc3c2-c2ccccc2)CN1Nc1ccccn1  > 100 µM (inactive)

response.value for NC(=O)CCC(NC(=O)C(F)(F)F)C(=O)O (configuration not stated) (field: GI50) = > 100 µM (inactive)

response.value for Cc1c2ccnc(C(F)(F)F)c2cc2c1[nH]c1ccccc12 (field: GI50) = > 125 µM (inactive)

response.value for COc1cc(O)c2c(c1O)C(=O)c1cc(C)ncc1C2=O (field: GI50) = 7.91 µM (inactive)

response.value for CN(C)c1cccc(-c2cc(O)c3ccccc3n2)c1 (field: GI50) = 76.7 µM (inactive)

response.value for CCCCCCCCCCCC(=O)OCCOCCOCCOCCOCCOCc1ccccc1 (field: GI50) = > 100 µM (inactive)

response.value for COc1ccc(CNc2nc3cc(C(F)(F)F)ccc3nc2C)cc1OC (field: GI50) = 32.8 µM (inactive)

response.value for O=C(O)C1OC(Oc2cc(O)c3c(=O)cc(-c4ccc(O)cc4)oc3c2)C(O)C(O)C1O (configuration not stated) (field: GI50) = > 100 µM (inactive)
